test system: Hs578T; experiment: normalised response (% of control), CellTiter-Glo; higher = more viable cells (100 = DMSO, 0 = benzethonium chloride kill control); conditions: incubation time: 72 h
recorded.endpoint: normalised response (%)
Give the value in % but do not write % after it.

| molecule | recorded.endpoint | recorded.result |
| --- | --- | --- |
| Clc1ccc(Nc2nnc(Cc3ccncc3)c3ccccc23)cc1 [Vatalanib] (1 nM) | normalised response | 101 |
| CC(=O)Nc1ccc(C(=O)Nc2ccccc2N)cc1 [Tacedinaline] (1 nM) | normalised response | 96 |

Output normalised response of CCCCCCCCCCCCCCCCCCOP(=O)([O-])OC1CC[N+](C)(C)CC1 [Perifosine] (2.5 nM)
98.9

Output normalised response of CO[C@H]1/C=C\C=C(/C)C(=O)NC2=CC(=O)C(NCCN(C)C)=C(C[C@@H](C)C[C@H](OC)[C@H](O)[C@@H](C)/C=C(\C)[C@@H]1OC(N)=O)C2=O [Alvespimycin] (1 nM)
101

Output normalised response of Cc1ccc(C(=O)N(CCCN)[C@@H](c2oc3cc(Cl)ccc3c(=O)c2Cc2ccccc2)C(C)C)cc1 (0.01 nM)
97.8

----------
tested on: HCC1143; experiment: normalised response (% of control), CellTiter-Glo; higher = more viable cells (100 = DMSO, 0 = benzethonium chloride kill control); conditions: incubation time: 72 h
recorded.endpoint: normalised response (%)
Give the value in % but do not write % after it.

Solved entries (count: 6):
| molecule | recorded.result |
| --- | --- |
| CCC1(c2ccc(N)cc2)CCC(=O)NC1=O (stereo unspecified) [Aminoglutethimide] (1000 nM) | 97.6 |
| Cc1ccc(C(=O)N(CCCN)[C@@H](c2oc3cc(Cl)ccc3c(=O)c2Cc2ccccc2)C(C)C)cc1 (10 nM) | 97.1 |
| N#CCNC(=O)c1ccc(-c2ccnc(Nc3ccc(N4CCOCC4)cc3)n2)cc1 [Momelotinib] (1000 nM) | 91.7 |
| O=C1CCC(N2C(=O)c3ccccc3C2=O)C(=O)N1 (stereo unspecified) [Thalidomide] (10 nM) | 97.3 |
| CCC1(c2ccc(N)cc2)CCC(=O)NC1=O (stereo unspecified) [Aminoglutethimide] (10 nM) | 108 |
| Oc1nc(-c2ccc(C(F)(F)F)cc2)nc2c1CSCC2 [XAV-939] (1000 nM) | 88.8 |

Output normalised response of CN(C)/N=N/c1[nH]cnc1C(N)=O [Dacarbazine] (1000 nM)
103

Output normalised response of CCCCCCCCCCCCCCCCCCOP(=O)([O-])OC1CC[N+](C)(C)CC1 [Perifosine] (0.25 nM)
103

Output normalised response of CC(=O)Nc1ccc(C(=O)Nc2ccccc2N)cc1 [Tacedinaline] (0.1 nM)
92.9

Output normalised response of Clc1ccc(Nc2nnc(Cc3ccncc3)c3ccccc23)cc1 [Vatalanib] (1 nM)
97.1

Output normalised response of NC(=O)Nc1cc(-c2cccc(F)c2)sc1C(=O)N[C@H]1CCCNC1 [AZD7762] (1 nM)
103

Output normalised response of Cc1ccc(-n2nc(C(C)(C)C)cc2NC(=O)Nc2ccc(OCCN3CCOCC3)c3ccccc23)cc1 [Doramapimod] (10 nM)
98.3

Output normalised response of O=P1(NCCCl)OCCCN1CCCl (stereo unspecified) [Ifosfamide] (1 nM)
89.7

Output normalised response of O=C1CCC(N2C(=O)c3ccccc3C2=O)C(=O)N1 (stereo unspecified) [Thalidomide] (1000 nM)
95.9

Output normalised response of N[C@@H](CSC(c1ccccc1)(c1ccccc1)c1ccccc1)C(=O)O [S-trityl-L-cysteine] (40 nM)
92.7

Output normalised response of O=C(CCCCCCC(=O)Nc1ccc([C@H]2O[C@@H](CSc3nc(-c4ccccc4)c(-c4ccccc4)o3)C[C@@H](c3ccc(CO)cc3)O2)cc1)NO [Tubacin] (1000 nM)
90.2

Output normalised response of O=P1(NCCCl)OCCCN1CCCl (stereo unspecified) [Ifosfamide] (10 nM)
98.1

Output normalised response of N.N.[Cl][Pt][Cl] [Cisplatin] (0.1 nM)
95.2

Output normalised response of COc1cc2ncnc(Nc3ccc(F)c(Cl)c3)c2cc1NC(=O)/C=C/CN1CCCCC1 [Dacomitinib] (100 nM)
94.9

Output normalised response of Cc1ccc(C(=O)N(CCCN)[C@@H](c2oc3cc(Cl)ccc3c(=O)c2Cc2ccccc2)C(C)C)cc1 (0.1 nM)
96.8

Output normalised response of CC(C)Cn1cnc2c(N)nc3ccccc3c21 [Imiquimod] (0.25 nM)
99.2

----------
test system: MDA-MB-436; assay: normalised response (% of control), CellTox Green; higher = less cell death (100 = DMSO, 0 = benzethonium chloride kill control); conditions: incubation time: 72 h
Measured normalised response accompanies every entry in the list below.
Give the value in % but do not write % after it.

| compound | normalised response, % |
| --- | --- |
| COc1cc2ncnc(Nc3ccc(F)c(Cl)c3)c2cc1NC(=O)/C=C/CN1CCCCC1 [Dacomitinib] (100 nM) | 96.8 |

Output normalised response of Cc1ccc(C(=O)N(CCCN)[C@@H](c2oc3cc(Cl)ccc3c(=O)c2Cc2ccccc2)C(C)C)cc1 (100 nM)
105

Output normalised response of CC(=O)Nc1ccc(C(=O)Nc2ccccc2N)cc1 [Tacedinaline] (1000 nM)
107

----------
test system: MDA-MB-231; test: normalised response (% of control), CellTiter-Glo; higher = more viable cells (100 = DMSO, 0 = benzethonium chloride kill control); conditions: incubation time: 72 h
recorded.endpoint: normalised response (%)
Give the value in % but do not write % after it.

| compound | normalised response, % |
| --- | --- |
| CCCCCCCCCCCCCCCCCCOP(=O)([O-])OC1CC[N+](C)(C)CC1 [Perifosine] (2.5 nM) | 100 |
| O=C(CCCCCCC(=O)Nc1ccc([C@H]2O[C@@H](CSc3nc(-c4ccccc4)c(-c4ccccc4)o3)C[C@@H](c3ccc(CO)cc3)O2)cc1)NO [Tubacin] (10 nM) | 94.4 |
| CC(=O)Nc1ccc(C(=O)Nc2ccccc2N)cc1 [Tacedinaline] (100 nM) | 102 |

Output normalised response of CS(=O)(=O)c1ccc(C2=C(c3ccccc3)C(=O)OC2)cc1 [Rofecoxib] (1 nM)
104

Output normalised response of NC(=O)Nc1cc(-c2cccc(F)c2)sc1C(=O)N[C@H]1CCCNC1 [AZD7762] (100 nM)
88.7

Output normalised response of N.N.[Cl][Pt][Cl] [Cisplatin] (1 nM)
100

Output normalised response of Cc1ccc(-n2nc(C(C)(C)C)cc2NC(=O)Nc2ccc(OCCN3CCOCC3)c3ccccc23)cc1 [Doramapimod] (1000 nM)
83.7

Output normalised response of CCC(C)(C)C(=O)O[C@H]1C[C@@H](C)C=C2C=C[C@H](C)[C@H](CC[C@@H]3C[C@@H](O)CC(=O)O3)[C@H]21 [Simvastatin] (1 nM)
94.8

Output normalised response of C[C@@H](Oc1cc(-c2cnn(C3CCNCC3)c2)cnc1N)c1c(Cl)ccc(F)c1Cl [Crizotinib] (1 nM)
108

Output normalised response of N.N.[Cl][Pt][Cl] [Cisplatin] (0.1 nM)
99.7

Output normalised response of COc1cc2nccc(Oc3ccc(NC(=O)C4(C(=O)Nc5ccc(F)cc5)CC4)cc3)c2cc1OC [Cabozantinib] (1 nM)
104

----------
system: CAL-85-1; test: normalised response (% of control), CellTox Green; higher = less cell death (100 = DMSO, 0 = benzethonium chloride kill control); settings: incubation time: 72 h
recorded.endpoint: normalised response (%)
Give the value in % but do not write % after it.

| molecule | recorded.result |
| --- | --- |
| CN(N=O)C(=O)N[C@@H](C=O)[C@@H](O)[C@H](O)[C@H](O)CO [Streptozocin] (10000 nM) | 80.7 |
| CCC1=C[C@@H]2CN(C1)Cc1c([nH]c3ccccc13)[C@@](C(=O)OC)(c1cc3c(cc1OC)N(C)[C@H]1[C@@](O)(C(=O)OC)[C@H](OC(C)=O)[C@]4(CC)C=CCN5CC[C@]31[C@@H]54)C2 [Vinorelbine] (100 nM) | 51.3 |
| CCC1(c2ccc(N)cc2)CCC(=O)NC1=O (stereo unspecified) [Aminoglutethimide] (100 nM) | 106 |
| Cc1ccc(C(=O)Nc2ccc(CN3CCN(C)CC3)c(C(F)(F)F)c2)cc1C#Cc1cnc2cccnn12 [Ponatinib] (100 nM) | 105 |

Output normalised response of Cc1ccc(C(=O)N(CCCN)[C@@H](c2oc3cc(Cl)ccc3c(=O)c2Cc2ccccc2)C(C)C)cc1 (100 nM)
99.9

Output normalised response of CNCc1ccc(-c2[nH]c3cc(F)cc4c3c2CCNC4=O)cc1 [Rucaparib] (100 nM)
97.5

Output normalised response of O=P1(NCCCl)OCCCN1CCCl (stereo unspecified) [Ifosfamide] (10000 nM)
133

Output normalised response of Oc1nc(-c2ccc(C(F)(F)F)cc2)nc2c1CSCC2 [XAV-939] (100 nM)
111

Output normalised response of COc1cc2nccc(Oc3ccc(NC(=O)C4(C(=O)Nc5ccc(F)cc5)CC4)cc3)c2cc1OC [Cabozantinib] (100 nM)
106

Output normalised response of O=C1CCC(N2C(=O)c3ccccc3C2=O)C(=O)N1 (stereo unspecified) [Thalidomide] (10000 nM)
119

Output normalised response of CNCc1ccc(-c2[nH]c3cc(F)cc4c3c2CCNC4=O)cc1 [Rucaparib] (1000 nM)
71.2

Output normalised response of Clc1ccc(Nc2nnc(Cc3ccncc3)c3ccccc23)cc1 [Vatalanib] (100 nM)
77.6

Output normalised response of O=P1(NCCCl)OCCCN1CCCl (stereo unspecified) [Ifosfamide] (100 nM)
110

Output normalised response of CC(=O)Nc1ccc(C(=O)Nc2ccccc2N)cc1 [Tacedinaline] (1000 nM)
92.3

Output normalised response of Cc1ccc(C(=O)Nc2ccc(CN3CCN(C)CC3)c(C(F)(F)F)c2)cc1C#Cc1cnc2cccnn12 [Ponatinib] (1000 nM)
60.8

Output normalised response of CCC(C)(C)C(=O)O[C@H]1C[C@@H](C)C=C2C=C[C@H](C)[C@H](CC[C@@H]3C[C@@H](O)CC(=O)O3)[C@H]21 [Simvastatin] (1000 nM)
97.2
